# system.tested: Peptide 1593 (…) (Mycobacterium tuberculosis)
# test.protocol: ELISA, NNK clone supernatant on coated peptide (22 hits)
measured.parameter: OD450 nm

[
  {
    "binder": "65D3 chimeric Fab, NNK library L18 mutant L to S (VL L55S) (Fab, V domains shown) VH: QSLEESGGRLVTPGGSLTLTCTVSGFSLSTHDISWVRQAPGKGLEWIGVIARRGSTYYASWAKGRFTISKTSTTVDLKITSPTIEDTATYFCAREEFDFWGQGTLVTVSS VL: AVLTQTASPVSAAVGGTVTISCQSSQSVYNNKELSWFQQKPGQPPKLLISYASTSASGVPSRFKGSGSGTQFTLTISDLECDDAATYYCLGGYASTIDMWAFGGGTEVVVK",
    "measured.parameter": "OD450 nm",
    "recorded.result": "0.968 OD450"
  },
  {
    "binder": "65D3 chimeric Fab, NNK library L5 mutant S to Y (VL S27Y) (Fab, V domains shown) VH: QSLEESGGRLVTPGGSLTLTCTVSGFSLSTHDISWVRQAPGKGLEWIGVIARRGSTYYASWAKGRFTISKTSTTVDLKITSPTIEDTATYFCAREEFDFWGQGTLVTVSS VL: AVLTQTASPVSAAVGGTVTISCQSSQYVYNNKELSWFQQKPGQPPKLLISYASTLASGVPSRFKGSGSGTQFTLTISDLECDDAATYYCLGGYASTIDMWAFGGGTEVVVK",
    "measured.parameter": "OD450 nm",
    "recorded.result": "1.12 OD450"
  },
  {
    "binder": "65D3 chimeric Fab, NNK library L2 mutant S to T (VL S24T) (Fab, V domains shown) VH: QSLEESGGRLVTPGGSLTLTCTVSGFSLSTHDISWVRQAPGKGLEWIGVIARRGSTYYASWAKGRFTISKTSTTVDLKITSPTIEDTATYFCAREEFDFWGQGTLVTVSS VL: AVLTQTASPVSAAVGGTVTISCQTSQSVYNNKELSWFQQKPGQPPKLLISYASTLASGVPSRFKGSGSGTQFTLTISDLECDDAATYYCLGGYASTIDMWAFGGGTEVVVK",
    "measured.parameter": "OD450 nm",
    "recorded.result": "1.07 OD450"
  },
  {
    "binder": "65D3 chimeric Fab, NNK library L3 mutant S to L (VL S25L) (Fab, V domains shown) VH: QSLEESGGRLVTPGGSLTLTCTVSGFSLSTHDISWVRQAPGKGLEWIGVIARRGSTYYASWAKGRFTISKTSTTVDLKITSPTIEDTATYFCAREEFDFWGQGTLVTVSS VL: AVLTQTASPVSAAVGGTVTISCQSLQSVYNNKELSWFQQKPGQPPKLLISYASTLASGVPSRFKGSGSGTQFTLTISDLECDDAATYYCLGGYASTIDMWAFGGGTEVVVK",
    "measured.parameter": "OD450 nm",
    "recorded.result": "0.954 OD450"
  },
  {
    "binder": "65D3 chimeric Fab, NNK library L3 mutant S to T (VL S25T) (Fab, V domains shown) VH: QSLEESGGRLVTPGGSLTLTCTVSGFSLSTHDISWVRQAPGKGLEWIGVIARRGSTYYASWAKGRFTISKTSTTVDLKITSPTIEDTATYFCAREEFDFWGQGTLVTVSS VL: AVLTQTASPVSAAVGGTVTISCQSTQSVYNNKELSWFQQKPGQPPKLLISYASTLASGVPSRFKGSGSGTQFTLTISDLECDDAATYYCLGGYASTIDMWAFGGGTEVVVK",
    "measured.parameter": "OD450 nm",
    "recorded.result": "0.956 OD450"
  },
  {
    "binder": "65D3 chimeric Fab, NNK library H25 mutant K to R (VH K63R) (Fab, V domains shown) VH: QSLEESGGRLVTPGGSLTLTCTVSGFSLSTHDISWVRQAPGKGLEWIGVIARRGSTYYASWARGRFTISKTSTTVDLKITSPTIEDTATYFCAREEFDFWGQGTLVTVSS VL: AVLTQTASPVSAAVGGTVTISCQSSQSVYNNKELSWFQQKPGQPPKLLISYASTLASGVPSRFKGSGSGTQFTLTISDLECDDAATYYCLGGYASTIDMWAFGGGTEVVVK",
    "measured.parameter": "OD450 nm",
    "recorded.result": "0.872 OD450"
  },
  {
    "binder": "65D3 chimeric Fab, NNK library L8 mutant N to K (VL N30K) (Fab, V domains shown) VH: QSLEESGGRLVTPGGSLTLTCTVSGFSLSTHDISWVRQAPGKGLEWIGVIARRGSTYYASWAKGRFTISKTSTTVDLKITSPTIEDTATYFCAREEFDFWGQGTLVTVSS VL: AVLTQTASPVSAAVGGTVTISCQSSQSVYKNKELSWFQQKPGQPPKLLISYASTLASGVPSRFKGSGSGTQFTLTISDLECDDAATYYCLGGYASTIDMWAFGGGTEVVVK",
    "measured.parameter": "OD450 nm",
    "recorded.result": "1.04 OD450"
  },
  {
    "binder": "65D3 chimeric Fab, NNK library L2 mutant S to M (VL S24M) (Fab, V domains shown) VH: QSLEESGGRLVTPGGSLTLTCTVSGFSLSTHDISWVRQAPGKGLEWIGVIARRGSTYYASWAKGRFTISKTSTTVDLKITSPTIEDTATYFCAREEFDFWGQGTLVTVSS VL: AVLTQTASPVSAAVGGTVTISCQMSQSVYNNKELSWFQQKPGQPPKLLISYASTLASGVPSRFKGSGSGTQFTLTISDLECDDAATYYCLGGYASTIDMWAFGGGTEVVVK",
    "measured.parameter": "OD450 nm",
    "recorded.result": "1.09 OD450"
  },
  {
    "binder": "65D3 chimeric Fab, NNK library L5 mutant S to V (VL S27V) (Fab, V domains shown) VH: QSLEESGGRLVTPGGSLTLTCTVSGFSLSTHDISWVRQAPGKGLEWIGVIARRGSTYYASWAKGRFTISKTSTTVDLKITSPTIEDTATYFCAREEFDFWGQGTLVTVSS VL: AVLTQTASPVSAAVGGTVTISCQSSQVVYNNKELSWFQQKPGQPPKLLISYASTLASGVPSRFKGSGSGTQFTLTISDLECDDAATYYCLGGYASTIDMWAFGGGTEVVVK",
    "measured.parameter": "OD450 nm",
    "recorded.result": "1.09 OD450"
  },
  {
    "binder": "65D3 chimeric Fab, NNK library L3 mutant S to R (VL S25R) (Fab, V domains shown) VH: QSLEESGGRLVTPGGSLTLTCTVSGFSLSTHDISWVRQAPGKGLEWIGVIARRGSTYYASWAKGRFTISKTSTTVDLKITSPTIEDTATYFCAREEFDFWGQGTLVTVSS VL: AVLTQTASPVSAAVGGTVTISCQSRQSVYNNKELSWFQQKPGQPPKLLISYASTLASGVPSRFKGSGSGTQFTLTISDLECDDAATYYCLGGYASTIDMWAFGGGTEVVVK",
    "measured.parameter": "OD450 nm",
    "recorded.result": "0.963 OD450"
  },
  {
    "binder": "65D3 chimeric Fab, NNK library L5 mutant S to F (VL S27F) (Fab, V domains shown) VH: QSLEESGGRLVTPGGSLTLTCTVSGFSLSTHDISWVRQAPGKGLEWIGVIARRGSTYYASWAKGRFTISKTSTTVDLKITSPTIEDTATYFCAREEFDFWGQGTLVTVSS VL: AVLTQTASPVSAAVGGTVTISCQSSQFVYNNKELSWFQQKPGQPPKLLISYASTLASGVPSRFKGSGSGTQFTLTISDLECDDAATYYCLGGYASTIDMWAFGGGTEVVVK",
    "measured.parameter": "OD450 nm",
    "recorded.result": "1.11 OD450"
  },
  {
    "binder": "65D3 chimeric Fab, NNK library L8 mutant N to R (VL N30R) (Fab, V domains shown) VH: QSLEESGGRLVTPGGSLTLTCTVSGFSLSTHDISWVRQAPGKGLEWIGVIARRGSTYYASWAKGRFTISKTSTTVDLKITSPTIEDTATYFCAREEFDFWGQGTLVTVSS VL: AVLTQTASPVSAAVGGTVTISCQSSQSVYRNKELSWFQQKPGQPPKLLISYASTLASGVPSRFKGSGSGTQFTLTISDLECDDAATYYCLGGYASTIDMWAFGGGTEVVVK",
    "measured.parameter": "OD450 nm",
    "recorded.result": "0.958 OD450"
  }
]

Where these numbers come from: patent US12649778
